The reported measurements were obtained from patent US11274332B2.

- method: Example 18 Part 2: multiple dose PK (20 mg QID) of 3,4-DAP and 3-N-acetyl metabolite in slow and fast acetylators
- Type: in vivo, human
- condition notes: both sexes, human, plasma, oral, 20 mg, Day 3, Dose 1, slow acetylators, 20 mg QID; read-out: Mean t1/2 (converted)
- Description: The following method was used to analyze concentrations of 3,4-diaminopyridine and N-(4-aminopyridin-3-yl)acetamide in plasma and urine samples for the experiments in Example 18. […] Samples were analyzed by using HPLC with positive ion electrospray MS/MS detection. […] The LC/MS/MS method was validated to quantify 3,4-DAP in human plasma in the linear calibration range of 0.500 to 500 ng/mL and from 1.00 to 1000 ng/mL for the 3-N-acetyl metabolite. […]

compound	unit annotation	half-life
Nc1ccncc1N [3,4-DAP, 3,4-diaminopyridine]	h	1.6

----------
- method: Example 18 Part 2: multiple dose PK (20 mg QID) of 3,4-DAP and 3-N-acetyl metabolite in slow and fast acetylators
- Type: in vivo, human
- condition notes: both sexes, human, plasma, oral, 20 mg, Day 1, Dose 4, fast acetylators, 20 mg QID; read-out: Mean Tmax
readout name: Tmax

smiles string	result
Nc1ccncc1N	38.6 min

----------
- method: Example 18 Part 2: multiple dose PK (20 mg QID) of 3,4-DAP and 3-N-acetyl metabolite in slow and fast acetylators
- Type: in vivo, human
- condition notes: both sexes, human, plasma, oral, 20 mg, Day 3, slow acetylators, Dose 4 interval, 20 mg QID, arith. mean; read-out: Tmax

compound	Tmax, min
CC(=O)Nc1cnccc1N [3-N-acetyl amifampridine, N-(4-aminopyridin-3-yl)acetamide]	54

----------
- method: Example 18 Part 2: multiple dose PK (20 mg QID) of 3,4-DAP and 3-N-acetyl metabolite in slow and fast acetylators
- Assay type: in vivo, human
- condition notes: both sexes, human, plasma, oral, 20 mg, Day 1, Dose 1, slow acetylators, 20 mg QID; read-out: Mean AUC0-4

compound	AUC(0-t) / ng·h/mL
Nc1ccncc1N [3,4-DAP, 3,4-diaminopyridine]	115

----------
- method: Example 18 Part 2: multiple dose PK (20 mg QID) of 3,4-DAP and 3-N-acetyl metabolite in slow and fast acetylators
- Type: in vivo, human
- condition notes: both sexes, human, plasma, oral, 20 mg, Day 3, Dose 1, slow acetylators, 20 mg QID; read-out: Mean AUC0-4
readout name: AUC(0-t) (ng·h/mL)

molecule	numeric readout
Nc1ccncc1N [3,4-DAP, 3,4-diaminopyridine]	130

----------
- method: Example 18 Part 2: multiple dose PK (20 mg QID) of 3,4-DAP and 3-N-acetyl metabolite in slow and fast acetylators
- Type: in vivo, human
- condition notes: both sexes, human, plasma, oral, 20 mg, Day 3, fast acetylators, Dose 2 interval, 20 mg QID, arith. mean; read-out: AUC0-4

molecule	AUC(0-t), ng·h/mL
CC(=O)Nc1cnccc1N [3-N-acetyl amifampridine, N-(4-aminopyridin-3-yl)acetamide]	1320

----------
- method: Example 18 Part 2: multiple dose PK (20 mg QID) of 3,4-DAP and 3-N-acetyl metabolite in slow and fast acetylators
- Assay type: in vivo, human
- condition notes: both sexes, human, plasma, oral, 20 mg, Day 3, fast acetylators, Dose 2 interval, 20 mg QID, arith. mean; read-out: Tmax

compound	unit annotation	Tmax
CC(=O)Nc1cnccc1N [3-N-acetyl amifampridine, N-(4-aminopyridin-3-yl)acetamide]	h	1.3
